tested on: Rat primary motor neurons; experiment: axon extension of rat primary motor neurons; format: cell-based; conditions: Neuron, cells extending axons counted after 72 hrs, values in parenthesis, read-out: reasonable range expected for the EC50
pEC50: −log10 of the molar value.
readout label: pEC50

>>> print(df.to_string())
                                   compound  readout_label        result
0  CC(=O)CC/C=C(\C)CC/C=C(\C)CC/C=C(\C)CCC=C(C)C [CNS-102, 5E,9E,13E-Geranylgeranyl acetone]          pEC50  8.70 to 9.30

Could you now consider this next compound?
Prompt: Record request: pEC50 value, item CC(=O)CC/C=C(/C)CC/C=C(\C)CC/C=C(\C)CCC=C(C)C [CNS-103, 5Z,9E,13E-Geranylgeranyl acetone]
Response: 7.92 to 8.10

The origin of these recorded values is patent US20120172453A1.
